Molecular target: T1, mouse bombesin receptor subtype-3 (mouse, UniProt O54798 1-399)
T1 construct: bombesin receptor subtype-3 of mouse (Mus musculus); also called mBRS3; mouse BRS3; source: HEK293, transiently transfected, on cells
T1 sequence (looked up): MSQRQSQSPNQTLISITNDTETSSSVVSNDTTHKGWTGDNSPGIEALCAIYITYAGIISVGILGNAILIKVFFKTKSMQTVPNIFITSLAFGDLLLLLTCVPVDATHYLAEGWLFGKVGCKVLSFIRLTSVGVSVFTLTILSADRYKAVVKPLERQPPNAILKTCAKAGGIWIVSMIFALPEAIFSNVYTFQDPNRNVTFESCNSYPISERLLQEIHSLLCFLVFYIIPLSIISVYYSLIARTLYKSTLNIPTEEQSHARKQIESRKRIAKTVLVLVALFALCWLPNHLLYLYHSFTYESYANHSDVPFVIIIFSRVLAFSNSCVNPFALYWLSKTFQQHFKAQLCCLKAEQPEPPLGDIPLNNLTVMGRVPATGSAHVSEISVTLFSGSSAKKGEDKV
Test: radioligand binding; displacement of 50 pM [125I]-Tyr-NMB by unlabeled peptide on disaggregated transfected HEK293 cells; 1 h at 21°C; 24.5 mM HEPES pH 7.4, 98 mM NaCl; bound tracer separated by centrifugation
Settings: one partner purified
Where no end group is shown, it is not given here.
Measured parameter: Ki

Please fill in: Ki reported for YKIKVNPRGNLWATGHFM (ends and bridges not checked, The N-terminal Tyr may have been added for iodination (surmise); No C-terminal amide is printed for this peptide; also called NMB; source: synthetic peptide (Anhui Guoping Pharmaceutical)) [neuromedin B, unlabeled ligand peptide of the radioligand binding assays] = > 1000 nM
